Listing of entries alongside the reported IC50.
Target: CRBN/DDB1 (Homo sapiens (Human), UniProt Q96SW2)
Sequence (Q96SW2 whole entry): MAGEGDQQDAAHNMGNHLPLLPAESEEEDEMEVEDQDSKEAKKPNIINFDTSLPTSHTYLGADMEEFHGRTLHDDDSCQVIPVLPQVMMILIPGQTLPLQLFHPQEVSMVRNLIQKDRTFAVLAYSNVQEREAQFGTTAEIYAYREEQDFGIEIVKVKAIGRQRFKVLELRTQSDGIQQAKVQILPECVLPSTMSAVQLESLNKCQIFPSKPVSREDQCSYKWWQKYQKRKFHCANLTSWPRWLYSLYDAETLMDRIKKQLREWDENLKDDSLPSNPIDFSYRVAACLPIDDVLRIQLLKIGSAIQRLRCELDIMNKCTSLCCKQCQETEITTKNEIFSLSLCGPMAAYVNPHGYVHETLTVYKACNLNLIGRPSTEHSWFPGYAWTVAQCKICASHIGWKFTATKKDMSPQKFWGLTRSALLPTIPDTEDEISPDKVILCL
Sequence (Q16531 whole entry partner): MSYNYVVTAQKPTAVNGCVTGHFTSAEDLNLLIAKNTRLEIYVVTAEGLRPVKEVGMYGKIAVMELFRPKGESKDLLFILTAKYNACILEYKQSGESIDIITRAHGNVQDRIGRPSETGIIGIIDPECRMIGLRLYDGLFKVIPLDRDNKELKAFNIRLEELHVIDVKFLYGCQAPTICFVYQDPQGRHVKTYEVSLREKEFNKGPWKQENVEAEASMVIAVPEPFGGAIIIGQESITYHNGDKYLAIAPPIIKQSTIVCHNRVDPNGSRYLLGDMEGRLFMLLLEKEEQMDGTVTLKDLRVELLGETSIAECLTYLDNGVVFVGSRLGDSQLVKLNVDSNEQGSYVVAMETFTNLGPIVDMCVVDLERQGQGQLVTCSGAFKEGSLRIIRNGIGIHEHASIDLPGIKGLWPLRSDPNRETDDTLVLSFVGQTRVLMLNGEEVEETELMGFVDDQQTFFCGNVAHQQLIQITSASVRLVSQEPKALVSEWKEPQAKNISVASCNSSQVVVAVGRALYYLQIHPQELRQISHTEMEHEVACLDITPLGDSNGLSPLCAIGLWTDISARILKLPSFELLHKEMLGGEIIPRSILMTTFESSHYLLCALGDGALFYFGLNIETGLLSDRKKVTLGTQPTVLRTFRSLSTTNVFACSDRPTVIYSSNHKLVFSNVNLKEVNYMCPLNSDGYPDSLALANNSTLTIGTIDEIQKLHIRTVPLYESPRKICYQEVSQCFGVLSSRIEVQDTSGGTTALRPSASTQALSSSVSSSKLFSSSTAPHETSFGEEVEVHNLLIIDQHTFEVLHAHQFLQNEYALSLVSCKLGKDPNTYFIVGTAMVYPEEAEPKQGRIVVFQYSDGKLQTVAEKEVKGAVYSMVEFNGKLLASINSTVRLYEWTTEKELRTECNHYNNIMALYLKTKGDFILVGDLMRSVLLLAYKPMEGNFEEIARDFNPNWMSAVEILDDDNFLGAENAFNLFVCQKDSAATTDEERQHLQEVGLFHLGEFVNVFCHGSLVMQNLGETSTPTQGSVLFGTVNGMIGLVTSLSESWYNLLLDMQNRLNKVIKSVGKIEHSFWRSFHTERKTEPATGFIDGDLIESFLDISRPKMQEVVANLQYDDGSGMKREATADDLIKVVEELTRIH
Format: binding
Conditions: His tagged CRBN+DDB-DLS7+CXU4, Cy5-labeled Thalidomide probe, one hour incubation; read-out: CRBN HTRF IC50
recorded endpoint: IC50

[
  {
    "compound": "C[C@@H]1Cc2c([nH]c3ccccc23)[C@@H](c2cnc(N3CCC4(CC3)CC(CN3CCC(c5ccc6c(c5)n(C)c(=O)n6C5CCC(=O)NC5=O)CC3)C4)nc2)N1CC(F)F (some centres unmarked)",
    "recorded endpoint": "IC50",
    "result": "50 to 500 nM"
  },
  {
    "compound": "C[C@@H]1Cc2c([nH]c3ccccc23)[C@@H](c2cnc(N3CCC(CN4CCN5c6ccc7c(c6OC[C@@H]5C4)CN(C4CCC(=O)NC4=O)C7=O)CC3)nc2)N1CC(F)F (some centres unmarked)",
    "recorded endpoint": "IC50",
    "result": "50 to 500 nM"
  },
  {
    "compound": "C[C@@H]1Cc2c([nH]c3ccccc23)[C@@H](c2ccc(N3CCC4(CC3)CC(CN3CCN5c6ccc7c(c6OC[C@@H]5C3)CN([C@H]3CCC(=O)NC3=O)C7=O)C4)nc2)N1CC(F)F",
    "recorded endpoint": "IC50",
    "result": "< 50 nM"
  },
  {
    "compound": "COc1cc(N2CCC3(CCN(C(=O)CN4Cc5cc6c(cc5C4)C(=O)N(C4CCC(=O)NC4=O)C6=O)CC3)CC2)ccc1[C@@H]1c2[nH]c3ccccc3c2C[C@@H](C)N1CC(F)F (some centres unmarked)",
    "recorded endpoint": "IC50",
    "result": "500 to 5000 nM"
  },
  {
    "compound": "COc1cc(N2CCC(CN3CCN(c4ccc(NC5CCC(=O)NC5=O)cc4F)CC3)CC2)ccc1[C@@H]1c2[nH]c3ccccc3c2C[C@@H](C)N1CC(F)F (some centres unmarked)",
    "recorded endpoint": "IC50",
    "result": "< 50 nM"
  }
]
